Listing of entries alongside the reported GI50.
test system: Hs-578T; assay: NCI tumour cell line growth inhibition, 48 h
Active and inactive are the calls of the source. Rule as the data show it: active = GI50 up to about 1.1 µM and inactive = higher.

{"compound": "CN1CCC23c4c5ccc(O)c4OC2c2[nH]c4ccccc4c2CC3(O)C1C5 (stereo unspecified)", "measurement": "24.2 µM (inactive)"}
{"compound": "COC(=O)[C@@H]1c2c(oc3cc(CO)cc(O)c3c2=O)C=C[C@H]1O", "measurement": "24.7 µM (inactive)"}
{"compound": "Cc1ccc2c(c1)C/C(=C\\c1ccccc1C(=O)O)C2=O", "measurement": "> 100 µM (inactive)"}
{"compound": "COc1ccc(/C=C(/C#N)C(N)=O)cc1OC", "measurement": "> 100 µM (inactive)"}
{"compound": "COc1cc(N(CCC#N)CCC#N)ccc1/C=C1\\SC(=S)NC1=O", "measurement": "> 100 µM (inactive)"}

Now for a further compound.
Briefly, GI50 measured for O=C(NNC(=S)Nc1ccccc1)C12CC3CC(CC(C3)C1)C2 : > 74.3 µM (inactive)

----------
tested on: MDA-MB-435; test: NCI tumour cell line growth inhibition, 48 h
Active and inactive are the calls of the source. Rule as the data show it: active = GI50 up to about 1.1 µM and inactive = higher.
quantity: GI50

Some compounds with recorded GI50:
{"compound": "OCC12C3C4C5C3C1C5C42 (stereo not given)", "GI50": "> 100 µM (inactive)"}
{"compound": "Nc1ncnc2c1ncn2[C@H]1C=C[C@@H](NO)C1", "GI50": "> 100 µM (inactive)"}
{"compound": "Cc1c2c(c(C)n1-c1ccccc1)C(=O)N(CCSC(=N)N)C2=O", "GI50": "93.3 µM (inactive)"}
{"compound": "CCOC(=O)c1sc2nc1CSc1sc(=S)sc1SCc1nc(sc1C(=O)OCC)-c1nc(c(C(=O)OCC)s1)CSc1sc(=S)sc1SCc1nc-2sc1C(=O)OCC", "GI50": "> 10 µM (inactive)"}

Now for a further compound.
Briefly, GI50 measured for Clc1ccc(Nc2nc(Cl)c3nc[nH]c3n2)cc1Cl : 26.9 µM (inactive)

----------
system: SW-620; assay: NCI tumour cell line growth inhibition, 48 h
The source made the active and inactive calls. No stated cut-off is given here; in the data, active = GI50 up to about 1.1 µM and inactive = higher.
Tick one outcome: yes for active, no for inactive

Below are worked cases with known answers.
{"compound": "c1ccc(CNc2ncnc3nn[nH]c23)cc1", "assignedLabel": "no"}
{"compound": "COc1ccc(Br)c(N/N=C2\\CCCNC2=O)c1", "assignedLabel": "no"}
{"compound": "O=C1C=C(N2CCCC2)C(=O)c2c(O)ccc(O)c21", "assignedLabel": "no"}
{"compound": "CCOC(=O)Cc1nc2nn(Cc3ccccc3)cc2c(=O)[nH]1", "assignedLabel": "no"}
{"compound": "CCN(CC)Cc1cc(Nc2c3ccccc3nc3c4ccccc4n(C)c23)ccc1O", "assignedLabel": "no"}
{"compound": "COc1cc2c(c(O)c1OC)CC1CCC(=O)N1C2c1cccc2ccccc12 (centres undefined)", "assignedLabel": "no"}
{"compound": "CC(=O)O[C@H]1C[C@H]2[C@@H](OC(C)=O)/C=C3\\C[C@](C)(C(=O)[C@H](O)C(=C1C)C2(C)C)[C@@H](O)C[C@@H]3OC(=O)[C@H](O)[C@H](c1ccccc1)N(C)C", "assignedLabel": "no"}
{"compound": "CC1SC2=NC3=C(c4ccccc4C3=O)C(c3ccc(Cl)cc3)N2C1=O (centres undefined)", "assignedLabel": "no"}

Request: Just curious, what result did O=C(c1ccccc1)c1ccc(N2C(=O)/C(=C/c3cccc(Oc4ccccc4)c3)N=C2c2ccccc2)c(N2C(=O)/C(=C/c3cccc(Oc4ccccc4)c3)N=C2c2ccccc2)c1 get here?
Response: no

Request: Just curious, what result did COc1ccc(/C=C2\N/C(=N\N=C/C(O)C(O)C(O)C(O)CO)NC2=O)cc1 (centres undefined) get here?
Response: no

Request: Just curious, what result did C=C(Cl)C(Br)(CBr)CCC(Br)C(C)(C)Br (centres undefined) get here?
Response: no

Request: Just curious, what result did CN(C)c1nc2oc(-c3ccccc3)c(-c3ccccc3)c2c2nnnn12 get here?
Response: no

Request: Just curious, what result did O=C(Nc1ccccc1[N+](=O)[O-])c1ccccc1 get here?
Response: no

----------
test system: K562; test: NCI tumour cell line growth inhibition, 48 h
Activity calls are given as the source filed them. Rule as the data show it: active = GI50 up to about 1.1 µM and inactive = higher.
Listing of entries alongside the reported GI50.

{"molecule": "CCn1c(-c2ccccc2)nc2c1C(=O)c1ccccc1C2=O", "measurement": "25.9 µM (inactive)"}
{"molecule": "CC(C)c1cccc(C(C)C)c1NC(=O)/C(Cc1nc2ccc(Cl)cc2nc1O)=N\\NC(=O)C[N+](C)(C)C", "measurement": "> 100 µM (inactive)"}
{"molecule": "C=CCn1c(=O)c2ccccc2[n+]2c(-c3cccc([N+](=O)[O-])c3)csc12", "measurement": "28.4 µM (inactive)"}
{"molecule": "Cn1cnc([N+](=O)[O-])c1Sc1nc(N)nc2c1ncn2C1OC(CO)C(O)C1O (stereo not given)", "measurement": "5.13 µM (inactive)"}
{"molecule": "CCOC(=O)Nc1sc2c(c1C#N)CC(C)CC2 (stereo not given)", "measurement": "2.38 µM (inactive)"}
{"molecule": "COc1cccc(OCC(=N/NC(=O)c2ccncc2)/N=C/c2ccncc2)c1", "measurement": "> 100 µM (inactive)"}

Now for a further molecule.
Briefly, GI50 measured for O=C1c2cccc3cccc(c23)C(=O)N1CCCN1CCN(CCCN2C(=O)c3cccc4cccc(c34)C2=O)CC1 : > 100 µM (inactive)

----------
test system: SR; test: NCI tumour cell line growth inhibition, 48 h
The source made the active and inactive calls. Cut-off read from the data, not from the text of the source: active = GI50 up to about 1.1 µM and inactive = higher.
Tick one outcome: active, inactive

Below are worked cases with known answers.
{"molecule": "C=CCN1C[C@@H](C)N([C@@H](c2ccc(C(=O)N(CC)CC)cc2)c2cccc(OC)c2)C[C@@H]1C", "target": "SR", "assignedLabel": "inactive"}
{"molecule": "CC(=O)C1=C(C)O[C@@H]2O[C@H](COCc3ccccc3)[C@@H](OCc3ccccc3)[C@H](O)[C@@H]2S1", "target": "SR", "assignedLabel": "inactive"}
{"molecule": "O=C(Nn1c(-c2ccccc2)nc2ccccc2c1=O)c1ccc(CS)cc1", "target": "SR", "assignedLabel": "inactive"}

Request: Just curious, what result did N#Cc1nc(-c2cc([N+](=O)[O-])cc([N+](=O)[O-])c2)oc1N get here?
Response: inactive

Request: Just curious, what result did COc1c(O)c2ccccc2c2cc(O)ccc12 get here?
Response: inactive

Request: Just curious, what result did CN(C(=O)Nc1ccc(Cl)c(Cl)c1)C1CCCC[C@@H]1N1CCCC1 (stereo partly specified) get here?
Response: inactive

Request: Just curious, what result did Cc1ccc(N2C(=O)C(O)=C(C(=O)C(C)(C)C)C2c2ccc([N+](=O)[O-])cc2)cc1 (stereo unspecified) get here?
Response: inactive

Request: Just curious, what result did O=C1N=C(S)NNC12c1ccccc1-c1ccccc12 get here?
Response: inactive

Request: Just curious, what result did Cc1ccc2nc(Cl)c(/C=N/N3C(=O)/C(=C/c4cccc([N+](=O)[O-])c4)N=C3c3ccccc3)cc2c1 get here?
Response: inactive

Request: Just curious, what result did N#Cc1cc2c(cc1C#N)SCCSCCCSCCS2 get here?
Response: inactive

----------
tested on: MDA-MB-231; assay: NCI tumour cell line growth inhibition, 48 h
Activity calls are given as the source filed them. No stated cut-off is given here; in the data, active = GI50 up to about 1.1 µM and inactive = higher. Square brackets hold non-standard residues; d marks the D form. Peptide text beside a SMILES is read from it. pGlu = O=C1CC[C@@H](C(=O)O)N1; Thz = O=C(O)[C@@H]1CSCN1
quantity: GI50

Some compounds with recorded GI50:
{"compound": "CCOC(=O)c1ccc2nc(NC(=O)COC(=O)CSc3nc(C)cc(C)n3)sc2c1", "quantity": "GI50", "measurement": "66.4 µM (inactive)"}
{"compound": "CC1=C(C#N)C(=C(C#N)C#N)OC1(C)Cc1ccccc1 (centres undefined)", "quantity": "GI50", "measurement": "47.9 µM (inactive)"}
{"compound": "CCOP(=O)(OCC)/C(C#N)=C/c1ncc[nH]1", "quantity": "GI50", "measurement": "> 100 µM (inactive)"}
{"compound": "O=C1CC[C@@H](C(=O)N2CSC[C@H]2C(=O)O)N1 [PIDOTIMOD] ([pGlu]-[Thz]-OH)", "quantity": "GI50", "measurement": "> 100 µM (inactive)"}
{"compound": "CCC(CS(=O)(=O)O)[N+](=O)[O-] (centres undefined)", "quantity": "GI50", "measurement": "> 100 µM (inactive)"}
{"compound": "CCCC(=O)NC(C(=O)OCC)(N1CCOCC1)C(F)(F)F (centres undefined)", "quantity": "GI50", "measurement": "> 100 µM (inactive)"}
{"compound": "COC(=O)CN1SC2(SC13C(C)(C)C(=O)C3(C)C)C(C)(C)C(=O)C2(C)C", "quantity": "GI50", "measurement": "77.3 µM (inactive)"}
{"compound": "Cn1cnc([N+](=O)[O-])c1Sc1nc(N)nc2c1ncn2C1OC(CO)C(O)C1O (centres undefined)", "quantity": "GI50", "measurement": "0.783 µM (active)"}

Briefly, GI50 measured for CN(C)c1ccc(C2=C([O-])c3cc(-[n+]4ccccc4)ccc3C2=O)cc1 : > 100 µM (inactive)
